test: S. pombe growth modifiers, basal conditions – strain 972, OD600, 24 h, no modulator, primary screen (AID 1090);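 note: basal condition with compound alone and no growth modifier present; test concentration not given here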; settings: S. pombe 972 growth, called active from +8 up or from −8 down
Calls of active or inactive are those of the source.
Entry note: the call must match one of yes (active), no (inactive)

1) CN(C)C(=O)[C@@]1(Cc2ccccc2)N=C(c2ccc(OCCCO)cc2)O[C@H]1c1ccccc1: no
2) CCCCNC(=O)c1ccc(C#CC(C)(C)C)c(OC(C)=O)c1: no
3) CCCCC=C[C@@H](NC(=O)OCc1ccccc1Cl)c1ccccc1: no
4) COc1ccc([Si](C)(C)[C@@H]2[C@@H](CC(=O)N3CCC[C@H]3CO)O[C@]3(C(=O)N(Cc4cccc(N5C(=O)COc6ccccc65)c4)c4ccccc43)[C@H]2C)cc1: no
5) Cc1ccc(S[C@]2(C(=O)NCCN3CCOCC3)CC(=O)N(Cc3ccccc3Cl)[C@@H]2c2ccc(CO)cc2I)cc1: no

Hi team, can someone confirm the assay call for `CCCN1C(=O)[C@]2(Cc3ccccc31)N=C(c1ccc(OCCCO)cc1)O[C@@H]2c1ccccc1` ?
no

Assay result, entry `CC(C)(C)OC(=O)COc1cccc(C(=O)CCN2CCOCC2)c1` — outcome?
yes

What is the recorded call for this compound in the test? `CCOC(=O)C=Cc1cccc(C)c1O`
yes

GET /call?item= `COCC(=C=CC[C@H](O)c1ccc(CO)o1)CCO` returns the recorded outcome of this test.
no

Which outcome was entered for the compound `C=C[C@@H](CO)N(Cc1ccc(OC)cc1)S(=O)(=O)c1ccc(Br)cc1` in this test?
no

Would you mind telling me which call this test gave O=C1C2C=CC(C(O)C3CC=CCC3)N(Nc3ccccc3)C2C(=O)N1c1ccccc1 (stereo not drawn) ?
no

# lookup: test call for `C=C(COC)/C(=C/C[C@H](OC(=O)c1ccncc1)c1ccccc1OCCO)c1cc(C(=O)OC)ccc1OC`
no

Each compound tested received a call. Report the one for CCCCCC1=C2CNC(C)(C(=O)OC)C=C2C(C)C1=O (stereo not drawn) .
no

Test call for this compound, please: `CCOC(=O)C[C@H]1[C@H](OC(=O)c2ccc(C(=O)c3ccccc3)cc2)[C@@H](NC(=O)CC(C)C)c2cc(OCCCO)ccc2N1C(=O)c1ccccc1`
no

What is the recorded call for this compound in the test? `O[C@@H](Cc1ccccc1)[C@@H](/C=C/C1CC1)N(CC#Cc1ccccc1)Cc1ccccc1Br`
no

Which outcome did this test record for the compound `COC(=O)c1c(CC[C@@H](CO)NC(=O)N2CCC[C@H]2Cn2cc(C3(O)CCCCC3)nn2)oc(C(C)=O)c1C(=O)OC` ?
no

Outcome logged for C=CCC(OC(C)=O)[C@@H]1[C@@H](N(Cc2ccc(-c3cccc(C(F)(F)F)c3)o2)C(=O)Cc2ccc(OC)cc2)c2cc(OCCCO)ccc2N1C(=O)c1ccc(-c2ccccc2)cc1 (stereo partly drawn) in this assay:
no

How was Cc1ccc(C(C)CC(O)C2C=CC3C(=O)N(c4ccccc4)C(=O)C3N2Nc2ccccc2)o1 (stereo not drawn) classified in this test?
no

* * *

assay: probe aDKK1 binding to arrayed compounds – biochemical, biotinylated probe, 635/667 nm fluorescence, primary screen (AID 1099); conditions: small-molecule microarray, higher = more signal;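 note: score merges 667nm spot fluorescence with signal to noise across triplicate slides; reference of the scale not given here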
measured parameter: composite z-score
Answer with a number only.

1) COC(=O)[C@@]1(Cc2ccccc2)[C@H]2c3cc(C(=O)N(C)C)n(Cc4ccc(C)o4)c3C[C@H]2CN1C(=O)c1ccccc1: 2.33
2) COc1cc2c(cc1O)C(C1CC1)N(C)CC2 (stereo not given): 0.211

Quick check: composite z-score of `CCOC(=O)C1=C[C@@H](C(C)(C)C)N(S(=O)(=O)c2ccc(C)cc2)[C@H]1c1cccc2ccccc12` ?
0.166

State the recorded composite z-score for this entry: `NC(=O)NCC#Cc1ccc2c(c1)[C@]1(C(=O)N2)[C@H](C(=O)N2CCN(c3ncccn3)CC2)[C@H]2C(=O)O[C@H](c3ccccc3)[C@H](c3ccccc3)N2[C@@H]1c1ccc(O)cc1`
0.287

Can you share its composite z-score? I mean this compound: `CCCC=C(CCC)[C@@H](NC(=O)C(C)(C)C)c1ccc(C(=O)OC)cc1`
1.13

Look up composite z-score for this compound: `CCOC(=O)C=Cc1cccc(C)c1O`
-0.123

* * *

assay: small molecules captured by biotinylated probe aFSTL3 – biochemical, small-molecule microarray, fluorescence 635/667, stem cell growth factor project, primary screen (AID 1064); settings: higher = more signal;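 note: measures binding of the biotinylated anti-FSTL3 antibody to printed compounds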
measured parameter: composite z-score
Give the figure only, with no unit attached.

1. CCCC#C[Si](O[C@H](CC)c1cn([C@H](C)c2ccccc2)nn1)(C(C)C)C(C)C: -0.4
2. CCN(CC)c1ccc(N2CC=CC34O[C@@H]5/C=C\CCCOC(=O)C5[C@H]3C(=O)N(C(C)CO)[C@@H]4C2=O)cc1 (stereo partly specified): -0.136
3. CCCC=C(CCC)[C@@H](NP(=O)(c1ccccc1)c1ccccc1)c1ccc(-c2ccccc2)cc1: 0.0517
4. C=C(COC)/C(=C/C[C@H](OC(=O)c1ccncc1)c1ccccc1OCCO)c1cc(C(=O)OC)ccc1OC: -0.457
5. CCCCC(O)C1C=CC2C(=O)N(C)C(=O)C2N1N(c1ccccc1)c1ccccc1 (stereo unspecified): 0.555

Entry under review: `NC(=O)[C@H]1[C@@H]2C(=O)O[C@@H](c3ccccc3)[C@@H](c3ccccc3)N2[C@@H](c2ccc(OCCO)cc2)[C@]12C(=O)Nc1ccc(C#CCCO)cc12` . Reported composite z-score?
0.127

Requested field: composite z-score. Item: `O=C1O[C@@H](c2ccccc2)[C@@H](c2ccccc2)N2[C@@H](c3ccc(OCCO)cc3)[C@]3(C(=O)Nc4ccc(C#CC5=CCCCC5)cc43)[C@@H](C(=O)NC[C@H](O)c3ccccc3)[C@H]12`
-0.94

Which composite z-score value is on record for `CCOC(=O)C[C@H]1[C@H](OC(=O)c2ccc(C(=O)c3ccccc3)cc2)[C@@H](NC(=O)c2ccc(-c3ccccc3)cc2)c2cc(OCCCO)ccc2N1C(=O)Cc1ccc(OC)cc1` ?
-0.258

Query: composite z-score; subject: `CC1=C2[C@@H](CCc3ccccc3)OB(O)C[C@@H]2[C@@H]2C(=O)N(C)C(=O)[C@@H]2C1`
-0.366

What value of measured composite z-score is listed for `C#CCN(Cc1ccccc1Br)[C@H](/C=C/c1ccccc1)[C@@H](O)Cc1ccccc1` ?
1.6

Could you share which composite z-score value was measured for `NC(=O)NCC#Cc1ccc2c(c1)[C@]1(C(=O)N2)[C@H](c2ccccc2OCCO)N2[C@H](c3ccccc3)[C@H](c3ccccc3)OC(=O)[C@H]2[C@@H]1C(=O)NC[C@H](O)c1ccccc1` ?
-0.0058

* * *

assay: plasmodial surface anion channel blockers, osmotic lysis – cell-based, P. falciparum Indochina, OD700, 18 h, primary screen (AID 1157); details: P. falciparum Indochina infected erythrocytes, osmotic lysis OD700, 18 h; higher = more signal, called active from +8 up or from −8 down
measured parameter: z-score
Give the figure only, with no unit attached.

Record excerpt, results attached:
1. [N-]=[N+]=Nc1ccccc1C[C@@]1(C(=O)NCCN2CCOCC2)N=C(c2ccc(OCCCO)cc2)O[C@@H]1c1ccccc1N=[N+]=[N-]: 2.78
2. CCOC(=O)C[C@H]1[C@H](OC(=O)Cc2ccc3c(c2)OCO3)[C@@H](NC(=O)c2ccc3ccccc3n2)c2cc(OCCCO)ccc2N1C(=O)c1ccc2ccccc2n1: -0.0077
3. COC(=O)[C@@]1(Cc2ccc(OC)cc2)[C@H]2c3cc(C(=O)N4CCCC4)n(CCO)c3C[C@H]2CN1C(=O)c1ccccc1: 0.815
4. CC1=C2[C@@H](CCc3ccccc3)OB(O)C[C@@H]2[C@@H]2C(=O)N(C)C(=O)[C@@H]2C1: 0.255
5. CO[C@H]1O[C@H](CO)[C@@H](OC(=O)Nc2ccc3c(c2)OCO3)[C@H](OC(=O)Nc2ccc3c(c2)OCO3)[C@@H]1OC(=O)Nc1ccc2c(c1)OCO2: 0.742
6. COCCOC(=O)N1C(=O)[C@@]2(c3cc(C#CC4(O)CCCCCC4)ccc31)[C@H](c1ccc(O)cc1)N1[C@H](c3ccccc3)[C@H](c3ccccc3)OC(=O)[C@H]1[C@@H]2C(=O)N1CCN(c2ncccn2)CC1: -0.0236
7. COC(=O)[C@@]1(Cc2ccc(OC)cc2)[C@H]2c3cc(C(=O)N4CCCC4)n(CCc4c[nH]c5ccc(OC)cc45)c3C[C@H]2CN1C(=O)c1ccccc1: 1.57
8. C=CCN1C(=O)[C@]2(CCC(=O)OC(C)(C)C)N=C(c3ccc(OCCCO)cc3)O[C@@H]2c2ccccc21: 12.1
9. CN1C(=O)C2C=CC(C(O)c3cccn3C)N(Nc3ccc([N+](=O)[O-])cc3[N+](=O)[O-])C2C1=O (centres undefined): 1.17
10. O=C(NCCN1CCOCC1)[C@@H]1c2ccccc2C(=O)N(C2Cc3ccccc3C2)[C@H]1c1ccc(CO)cc1: 0.0832

# lookup: z-score of `CCOC(=O)C1=CC[C@@H](c2ccccc2F)N(S(=O)(=O)c2ccc(C)cc2)[C@H]1c1ccccc1`
0.338

Fill in: z-score of `COc1ccc([Si](C)(C)[C@H]2[C@H](CC(=O)N3Cc4ccccc4C[C@H]3CO)O[C@@]3(C(=O)N(Cc4ccc(N5CCOC5=O)cc4)c4ccccc43)[C@@H]2C)cc1` is ___
0.82

Which z-score is listed for `COC(=O)[C@@]1(Cc2ccc(F)cc2)[C@H]2c3cc(C(=O)N(C)C)n(CCc4ccc(OC)c(Br)c4)c3C[C@H]2CN1C(=O)c1ccccc1` ?
-1.96

Give the measured z-score of `CCCC=C(CCC)[C@@H](NC(=O)C(C)(C)C)c1ccc(C(=O)OC)cc1` .
1.21
